# Test system: UACC-257 melanoma
# protocol_description: NCI tumour cell line growth inhibition, 48 h
readout_type: TGI

Example cases with answers are listed next.
> print(dat)
                                   compound             system  reported.value
1  COc1cc2c(cc1OCCCCn1c(-c3cccs3)nc3ccccc31)N=C[C@@H]1CCCN1C2=O  UACC-257 melanoma          5.9 µM
2  NC1=NC2=C(CCCC2)C(c2cccs2)S1 (centres undefined)  UACC-257 melanoma        > 100 µM
3  COc1ccc2[nH]c3c4c(cc(-c5ccccc5)c3c2c1)C(=O)N(c1ccccc1)C4=O  UACC-257 melanoma        > 100 µM
4  COc1ccc(/C=C/C(=O)c2ccc(Nc3nc(Nc4ccc(F)cc4)nc(Nc4ccc(Cl)cc4)n3)cc2)cc1  UACC-257 melanoma        > 100 µM
5  Cn1c2cc([N+](=O)[O-])ccc2c(=O)c2c(O)cc3c(c21)C=CC(C)(C)O3  UACC-257 melanoma        > 100 µM

Quote TGI reported for CCCn1c(=O)c2nn3c(=O)n(CCC)c(=O)c3nn2c1=O please.
> 100 µM

Quote TGI reported for O=C1C(=C([O-])c2ccccc2)C(=O)c2ccccc21.O=C1C(=C([O-])c2ccccc2)C(=O)c2ccccc21.[Co+2] please.
> 100 µM

Quote TGI reported for O=C1/C(=C/c2ccc(Cl)cc2)N=C(c2ccccc2)N1/N=C/c1ccccc1O please.
> 100 µM

Quote TGI reported for Cc1cnc2c(c1)C(=O)N(c1ccc([N+](=O)[O-])cc1)S2(=O)=O please.
> 100 µM
